Biological target: T1, GDF15 (ligand used in the GFRAL/RET cell assays) (UniProt Q99988 197-308, limits assumed)
T1 sequence (looked up): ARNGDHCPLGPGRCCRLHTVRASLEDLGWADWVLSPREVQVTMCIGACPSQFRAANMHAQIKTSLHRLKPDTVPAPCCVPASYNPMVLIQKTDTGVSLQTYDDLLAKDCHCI
Test: cell-based or functional assay
READOUT TYPE: GDF15 GFRAL RET pERK Fab IC50 pM
Your answer should be a number followed by the unit of measure.

Query :: Note GDF15 GFRAL RET pERK Fab IC50 pM for the binder shown: GDF15 antibody agent Clone M, Fab (Fab, V domains shown, Fab; CH1 and CL of the Fab not specified; also called Fab of Clone M) VH: QVQLVQSGAEVKKPGASVKVSCKASGYTFDSYGINWVRQAPGQGLEWMGWISAYSGDTAYAQELQGRVTMTTDTSTSTAYMELRSLRSDDTAVYYCVRDTQYGGSPYWGQGTLVTVSS VL: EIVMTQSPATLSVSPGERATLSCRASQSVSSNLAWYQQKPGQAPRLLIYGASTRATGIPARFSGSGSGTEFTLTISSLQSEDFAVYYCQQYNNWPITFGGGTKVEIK
Result :: 1370 pM
